# Tested on: NCI-H23
# method_description: NCI tumour cell line growth inhibition, 48 h
The source made the active and inactive calls. Rule as the data show it: active = GI50 up to about 1.1 µM and inactive = higher.
Could you please pick one outcome from this set? label 1 (active), label 0 (inactive)

Completed entries (count: 8):
Request: Assay outcome for CNC(C)C(O)c1ccc2oc3cc(=O)c4ccccc4c-3nc2c1 (stereo unspecified) : what was it?
Response: label 0

Request: Assay outcome for CC(=O)OC1C(COC(N)=O)OC(n2c(-c3ccc(C)cc3)cc(-c3ccccc3)c(C#N)c2=O)C(OC(C)=O)C1OC(C)=O (stereo unspecified) : what was it?
Response: label 0

Request: Assay outcome for C=Cc1cc(OC)c2c(c1)c(=O)oc1c2cc(OC)c2c(O)ccc(C3OC(C)C(O)C(C)(O)C3O)c21 (stereo unspecified) : what was it?
Response: label 1

Request: Assay outcome for O=C(c1ccc(Cl)cc1)C(O)c1ccc(Cl)cc1 (stereo unspecified) : what was it?
Response: label 0

Request: Assay outcome for Cc1nc(O)nc2nc3ccc(Cl)cc3c(NC(C)(CO)CO)c12 : what was it?
Response: label 0

Request: Assay outcome for Cc1nc2ccccc2c(=O)n1/N=C(\N=N\c1cccc(Cl)c1)c1ccccc1Cl : what was it?
Response: label 0

Request: Assay outcome for CCC(=C(c1ccc(OCc2ccccc2)cc1)c1ccc(OCc2ccccc2)cc1)c1ccc(OC)cc1 : what was it?
Response: label 0

Request: Assay outcome for O=C(CCc1ccc(O)c(O)c1)NCCc1cc(O)cc(OCc2ccccc2)c1 : what was it?
Response: label 0

New cases:
Request: Assay outcome for N#C/C(=C\c1cc(Br)c(O)c(Br)c1)c1cccnc1 : what was it?
Response: label 0

Request: Assay outcome for COC(=O)c1cc(CNCCc2c[nH]c3ccccc23)on1 : what was it?
Response: label 0

Request: Assay outcome for COP(C)(=O)C(Cc1c[nH]c2ccccc12)NC(=O)OCc1ccccc1 (stereo unspecified) : what was it?
Response: label 0

Request: Assay outcome for CSCCC(NC(=O)Cc1ccc(C(=O)c2ccccc2)cc1)C(=O)O (stereo unspecified) : what was it?
Response: label 0

Request: Assay outcome for Cc1ccc(-c2cc(=O)c3cc(C)c(C)c(C(=O)O)c3o2)cc1N : what was it?
Response: label 0

Request: Assay outcome for CCOc1ccc(NC(=O)/C(Cc2nc3ccccc3nc2O)=N\O)cc1 : what was it?
Response: label 0

Request: Assay outcome for CCOC(=O)C(C(=O)OCC)=C1C=C(c2ccccc2)c2ccccc21 : what was it?
Response: label 0

Request: Assay outcome for O=C1C(Cl)N(c2c(Cl)cccc2Cl)C1c1c[nH]c2ccccc12 (stereo unspecified) : what was it?
Response: label 0

Request: Assay outcome for c1ccc(NN=C(c2ccccn2)c2ccccn2)nc1 : what was it?
Response: label 1

Request: Assay outcome for CC1=Nc2sc3c(c2C2=NCCN12)CCCC3 : what was it?
Response: label 0

Request: Assay outcome for COC(=O)C1(NC(=O)C(CC(=O)OCc2ccccc2)NC(=O)OCc2ccccc2)CCCCCCC1 (stereo unspecified) : what was it?
Response: label 0

Request: Assay outcome for CCCNC1=Nc2ccccc2N(Cc2ccccc2)CC1 : what was it?
Response: label 0

Request: Assay outcome for Nc1ncnc2c1ncn2COC/C=C/I : what was it?
Response: label 0

Request: Assay outcome for O=C1Nc2ccccc2N/C1=C\C(=O)c1ccccc1O : what was it?
Response: label 0

Request: Assay outcome for COc1c(C)c(OC)c(C(=O)CC(C)C)c(OC)c1C : what was it?
Response: label 0

Request: Assay outcome for COc1ccc(C2=Nc3ccccc3N=C(SC)C2)cc1 : what was it?
Response: label 0

Request: Assay outcome for O=C1NC(N2CCCCC2)=N/C1=C\c1ccc(Cl)cc1 : what was it?
Response: label 0

Request: Assay outcome for CCN(CC)C(=O)COc1cc2c(O)c3c(O)c(C)c4c(c13)C(=O)C(C)(OC=CC(OC)C(C)C(OC(C)=O)C(C)C(O)C(C)C(O)C(C)C=CC=C(C)C(=O)N2)O4 (stereo unspecified) : what was it?
Response: label 0

Request: Assay outcome for CC(C)C1CO[C@]2(C)CCC(=O)N12 (stereo partly specified) : what was it?
Response: label 0

###

# System: LOX IMVI
# method_description: NCI tumour cell line growth inhibition, 48 h
Calls of active or inactive are those of the source. Rule as the data show it: active = GI50 up to about 1.1 µM and inactive = higher.
Could you please pick one outcome from this set? True = active, False = inactive

Request: Assay outcome for COC(=O)c1cc2c3c(ccc2[nH]1)N(C(=O)c1cc2cc(OC)c(OC)c(OC)c2[nH]1)CC3CCl (stereo unspecified) : what was it?
Response: False

Request: Assay outcome for N=c1oc2ccccc2cc1-c1nc2ccccc2c(=O)[nH]1 : what was it?
Response: False

Request: Assay outcome for N/N=C(\CC1OC(=O)c2ccccc21)c1ccco1 (stereo unspecified) : what was it?
Response: False

Request: Assay outcome for CC1NOC(=O)C1/N=N/c1ccc(Cl)cc1Cl (stereo unspecified) : what was it?
Response: False

Request: Assay outcome for CN(CCCCN(C)CCc1ccc(Cl)c(Cl)c1)CCCCN1CCCC1 : what was it?
Response: True

New cases:
Request: Assay outcome for CCC/C(C)=N/NC(=S)SC.CCC/C(C)=N/NC(=S)SC.[Zn+2] : what was it?
Response: False

Request: Assay outcome for COP(C)(=O)C(Cc1c[nH]c2ccccc12)NC(=O)OCc1ccccc1 (stereo unspecified) : what was it?
Response: False

Request: Assay outcome for COCOCCC#CCO : what was it?
Response: False

###

# System: RXF 393
# method_description: NCI tumour cell line growth inhibition, 48 h
Calls of active or inactive are those of the source. No stated cut-off is given here; in the data, active = GI50 up to about 1.1 µM and inactive = higher.
readout_name: GI50

Worked cases, GI50 given:
Request: Param readout= GI50; system= RXF 393; entry= CN(C)/C=C(\C(=O)c1ccccc1)n1nc(-c2ccccc2)cc1-c1ccccc1 ; returns value.
Response: > 10 µM (inactive)

Request: Param readout= GI50; system= RXF 393; entry= N#CCCN(CCC#N)c1ccc(C(=N/c2ccc(F)cc2)/N=N/c2ccccc2)cc1 ; returns value.
Response: 2.67 µM (inactive)

New cases:
Request: Param readout= GI50; system= RXF 393; entry= CC(C)(C)n1nc(C2CC2)cc1NC(=O)Nc1ccc(Cl)cc1 ; returns value.
Response: > 100 µM (inactive)

Request: Param readout= GI50; system= RXF 393; entry= CCOC(=O)C1S/C(=N\c2ccc(Cl)cc2)N=C1C (stereo unspecified) ; returns value.
Response: 16.6 µM (inactive)

Request: Param readout= GI50; system= RXF 393; entry= CC12OC3(O)C4C5CC(C6C5C3C61)C42 (stereo unspecified) ; returns value.
Response: > 100 µM (inactive)

Request: Param readout= GI50; system= RXF 393; entry= O=C(Cn1c(C(=O)/C=C/c2cccs2)nc2ccccc21)c1ccc(Cl)cc1 ; returns value.
Response: 29.2 µM (inactive)

###

# Test system: OVCAR-4
# method_description: NCI tumour cell line growth inhibition, 48 h
The source made the active and inactive calls. No stated cut-off is given here; in the data, active = GI50 up to about 1.1 µM and inactive = higher.
Could you please pick one outcome from this set? active, inactive

Completed entries (count: 2):
Request: Assay outcome for O=S(=O)(O)SCCNCCCCCC1CCCCC1 : what was it?
Response: inactive

Request: Assay outcome for C=C1c2nc3ccccc3n2C=C(c2ccc(Cl)cc2)N1c1ccccc1 : what was it?
Response: inactive

New cases:
Request: Assay outcome for CC1=C(C(=O)OCCO[N+](=O)[O-])C(c2ccccc2C(F)(F)F)C(C(=O)OC(C)C)=C(C)N1 (stereo not given) : what was it?
Response: inactive

Request: Assay outcome for CCOC1NC(=O)Oc2ccccc21 (stereo not given) : what was it?
Response: inactive

Request: Assay outcome for Cn1c(=O)nc2n(-c3ccc(F)cc3)c3ccccc3nc-2c1=O : what was it?
Response: inactive

###

# Tested on: Malme-3M
# method_description: NCI tumour cell line growth inhibition, 48 h
The source made the active and inactive calls. Cut-off read from the data, not from the text of the source: active = GI50 up to about 1.1 µM and inactive = higher.
Could you please pick one outcome from this set? label 1 (active), label 0 (inactive)

Request: Assay outcome for O=c1ccn2n1Cc1ccccc1C2 : what was it?
Response: label 0

Request: Assay outcome for Cc1ccc(S(=O)(=O)c2c(O)c3ccccc3n(C)c2=O)cc1 : what was it?
Response: label 0

Request: Assay outcome for C/C(=N\NC(=S)N1CCCCC1)c1nc2cccnc2[nH]1 : what was it?
Response: label 0

Request: Assay outcome for Nc1nc(Cl)c2ncn(Cc3ccccc3CCl)c2n1 : what was it?
Response: label 0

Request: Assay outcome for CNC(C)C(O)c1ccc2oc3cc(=O)c4ccccc4c-3nc2c1 (stereo not given) : what was it?
Response: label 0

Request: Assay outcome for C[N+]1(CCCl)CC[N+](C)(CCCl)CC1 (stereo not given) : what was it?
Response: label 0

New cases:
Request: Assay outcome for OC12c3ccccc3C1CCCCC2N1CCCC1 (stereo not given) : what was it?
Response: label 0

Request: Assay outcome for CCN(CC)C(=O)COc1cc2c(O)c3c(O)c(C)c4c(c13)C(=O)C(C)(OC=CC(OC)C(C)C(OC(C)=O)C(C)C(O)C(C)C(O)C(C)C=CC=C(C)C(=O)N2)O4 (stereo not given) : what was it?
Response: label 0

Request: Assay outcome for Cc1ccc(C)c(NC(=O)c2cc(-c3ccc([N+](=O)[O-])cc3)nc(N)n2)c1 : what was it?
Response: label 0

Request: Assay outcome for CCOC(=O)COS(=O)(=O)C(F)(F)F : what was it?
Response: label 0

Request: Assay outcome for COC(=O)C#CC1(O)C=CC(=O)C=C1 : what was it?
Response: label 0

Request: Assay outcome for O=C1C(Cl)=C(NCCN2CCOCC2)C(=O)c2c(O)ccc(O)c21 : what was it?
Response: label 0

Request: Assay outcome for CCCCCC(=O)OCC(=O)[C@H]1[C@H](C)C[C@H]2[C@@H]3C[C@H](F)C4=C/C(=N/OC(=O)c5cccc6c(=O)c7ccccc7[nH]c56)C=C[C@]4(C)[C@H]3[C@@H](O)C[C@@]21C : what was it?
Response: label 0

Request: Assay outcome for COc1cc(/C=C/C(=N\NC(N)=S)c2sc(NNC(C)=O)nc2C)ccc1O : what was it?
Response: label 0

Request: Assay outcome for C=Cc1cc(OC)c2c(c1)c(=O)oc1c2cc(OC)c2c(O)ccc(C3OC(C)C(O)C(C)(O)C3O)c21 (stereo not given) : what was it?
Response: label 1

Request: Assay outcome for Nc1ncnc2c1ncn2COC/C=C/I : what was it?
Response: label 0

Request: Assay outcome for O=c1n(Cc2ccccc2)c(=O)n2c(=O)n(Cc3ccccc3)c(=O)n12 : what was it?
Response: label 0

Request: Assay outcome for CC(=O)SC(SC(C)=O)SC(C)=O : what was it?
Response: label 0

Request: Assay outcome for CCOc1ccc(NC(=O)/C(Cc2nc3ccccc3nc2O)=N\O)cc1 : what was it?
Response: label 0

Request: Assay outcome for CCCc1onc(CCC(=O)N(Cc2ccccc2)Cc2ccccc2)c1CC : what was it?
Response: label 0

Request: Assay outcome for O=[N+]([O-])/C(C(Cl)=C(Cl)Cl)=C(\N1CCCCC1)n1cncn1 : what was it?
Response: label 0

Request: Assay outcome for CC(=O)O[C@H]1C(=O)[C@@]2(C)[C@H]([C@H](OC(=O)c3ccc([N+](=O)[O-])cc3)[C@]3(O)C[C@H](OC(=O)[C@H](O)[C@@H](NC(=O)c4ccccc4)c4ccccc4)C(C)=C1C3(C)C)[C@]1(OC(C)=O)CO[C@@H]1C[C@@H]2O : what was it?
Response: label 0

Request: Assay outcome for COc1ccc(-c2cc(-c3ccccc3)c(C#N)c(=O)[nH]2)cc1 : what was it?
Response: label 0

Request: Assay outcome for C[C@]12CCC(=O)C=C1CC[C@@H]1[C@@H]2CC[C@]2(C)C(=O)NC(=O)C[C@@H]12 : what was it?
Response: label 0

Request: Assay outcome for Nc1ccc(-c2nc3cc(F)ccc3s2)cc1CO : what was it?
Response: label 0

Request: Assay outcome for Cn1cnc2nc(Cl)nc(NC(C)(C)C(C)(C)O)c21 : what was it?
Response: label 0
